# protocol-summary: Motesanib plasma pharmacokinetics (LC-MS/MS)
# Format: in vivo, human
# conditions: human, plasma, po, time 0 to 24 hours; motesanib 125 mg oral QD with trebananib 3 mg kg^−1; mean
observable: AUC

Lab note: measured AUC of CC1(C)CNc2cc(NC(=O)c3cccnc3NCc3ccncc3)ccc21 was 3920 ng·h/mL

====

# protocol-summary: Motesanib plasma pharmacokinetics (LC-MS/MS)
# Format: in vivo, human
# conditions: human, plasma, po, 75 mg, motesanib 75 mg oral QD without trebananib; mean
observable: Cmax (ng/mL)
Answer format: numeric, ng/mL implied, no suffix.

Lab note: measured Cmax of CC1(C)CNc2cc(NC(=O)c3cccnc3NCc3ccncc3)ccc21 was 466

====

# protocol-summary: Motesanib plasma pharmacokinetics (LC-MS/MS)
# Format: in vivo, human
# conditions: human, plasma, po, motesanib 75 mg oral QD with trebananib 3 mg kg^−1; mean
observable: Cmax (ng/mL)
Answer format: numeric, ng/mL implied, no suffix.

Lab note: measured Cmax of CC1(C)CNc2cc(NC(=O)c3cccnc3NCc3ccncc3)ccc21 was 507

====

# protocol-summary: Motesanib plasma pharmacokinetics (LC-MS/MS)
# Format: in vivo, human
# conditions: human, plasma, po, 75 mg, time 0 to 24 hours; motesanib 75 mg oral QD without trebananib; mean
observable: AUC (ng·h/mL)
Answer format: numeric, ng·h/mL implied, no suffix.

Lab note: measured AUC of CC1(C)CNc2cc(NC(=O)c3cccnc3NCc3ccncc3)ccc21 was 2580
